// IC50 lookup, one value per entry
# Tested on: SUDHL5
# assay_summary: Induction of cytotoxicity (CellTiter-Glo, 5 h), SUDHL5
# experimental_context: read-out: Cytotox SUDHL5 [M] (median); SUDHL5 cells, cytotoxicity induction, CellTiter-Glo, 5 h incubation, median

compound	readout_qualifier	IC50 (M)
CN1CCCCn2c(C(=O)O)c(CCCOc3cccc4ccccc34)c3cccc(c32)-c2c(CC(F)(F)F)nn(C)c2C1 (single isomer, unassigned) [Example 224]	>	3.3e-05
CCc1c2c(nn1C)COCCCCn1c(C(=O)O)c(CCCOc3cccc4ccccc34)c3cccc-2c31 (single isomer, unassigned; enantiomer 2) [Example 149]	>	3.3e-05
Cn1nc(COc2ccccc2)c2c1COCC=CCn1c(C(=O)O)c(CCCOc3cccc4ccccc34)c3cccc-2c31 (single isomer, unassigned)	>	3.3e-05
CCOCc1nn(C)c2c1-c1cccc3c(CCCOc4cccc5c4CCCC5)c(C(=O)O)n(c13)CCCCOC2 (single isomer, unassigned; enantiomer 2) [Example 172]	>	3.3e-05
COc1ccccc1-c1ncc(OCc2nn(C)c3c2-c2cccc4c(CCCOc5cccc6ccccc56)c(C(=O)O)n(c24)CCCN(C)C3)cn1 (single isomer, unassigned) [Example 1-92]	=	2.9e-06
COc1c2c(nn1C)COCCCCn1c(C(=O)O)c(CCCOc3cccc4ccccc34)c3cccc-2c31 (single isomer, unassigned) [Example 208]	=	2.63e-06
Cn1ccnc1COCc1nn(C)c2c1-c1cccc3c(CCCOc4cccc5ccccc45)c(C(=O)O)n(c13)CCCCOC2 (single isomer, unassigned) [Example 233]	=	2.15e-05
Cc1ccc2c(C(C)CCOc3cccc4ccccc34)c(C(=O)O)n3c2c1-c1c(C)nn(C)c1COCCCC3 (single isomer, unassigned) [Example 257]	>	3.3e-05
CCc1c2c(nn1C)CN(C)CCCn1c(C(=O)O)c(CCCOc3cccc4ccccc34)c3cccc-2c31 (single isomer, unassigned; enantiomer 2) [Example 143]	=	1.36e-05
Cn1nc(COc2ccc(C3=CCOCC3)cc2)c2c1COCCCCn1c(C(=O)O)c(CCCOc3cccc4ccccc34)c3cccc-2c31 (single isomer, unassigned)	=	6.23e-06
CCc1c2c(nn1C)COCCCCn1c(C(=O)O)c(CCCOc3cccc4ccccc34)c3ccc(C)c-2c31 (single isomer, unassigned; enantiomer 2) [Example 155]	>	3.3e-05
Cc1nn(CC(F)(F)F)c2c1-c1cccc3c(CCCOc4cccc5ccccc45)c(C(=O)O)n(c13)CCCCOC2 (single isomer, unassigned; enantiomer 1) [Example 110]	=	6.54e-06
CN(C)S(=O)(=O)N1CCN(c2ccc(OCc3nn(C)c4c3-c3cccc5c(CCCOc6cccc7ccccc67)c(C(=O)O)n(c35)CCCCOC4)cc2)CC1 (single isomer, unassigned; enantiomer 1) [Example 1-19]	=	2.7e-05
CN1CCCn2c(C(=O)O)c(CCCOc3cccc4ccccc34)c3cccc(c32)-c2c(COc3ccc(S(C)(=O)=O)cc3)nn(C)c2C1 (single isomer, unassigned) [Example 1-49]	=	3.3e-05
Cc1nn(CCN2CCOCC2)c2c1-c1cccc3c(CCCOc4cccc5ccccc45)c(C(=O)O)n(c13)CCCCOC2 (single isomer, unassigned; enantiomer 1) [Example 096]	=	1.09e-06

====

Measured IC50 values are reported for all entries that follow.
# Tested on: OPM2
# assay_summary: Anti-proliferative effect (CellTiter-Glo, 72 h), OPM2
# Format: cell-based
# experimental_context: Homo sapiens, OPM-2, 72 h, OPM2 cells, median, read-out: IC50 antiproliferation assay OPM2 [M] (median)
endpoint_name: IC50

compound	observed_result
CN(C)S(=O)(=O)N1CCN(c2ccc(OCc3nn(C)c4c3-c3cccc5c(CCCOc6cccc7ccccc67)c(C(=O)O)n(c35)CCCCCC4)cc2)CC1 (racemic) [Example 1-39]	> 3.3e-05 M
CC(C)OCc1nn(C)c2c1-c1cccc3c(CCCOc4cccc5ccccc45)c(C(=O)O)n(c13)C/C=C\COC2 (racemic) [Example 1-68]	> 3.3e-05 M
Cn1nc(CN2CCOCC2)c2c1COCCCCn1c(C(=O)O)c(CCCOc3cccc4ccccc34)c3cccc-2c31 (single isomer, unassigned; enantiomer 2) [Example 137]	> 3.3e-05 M

====

# study_system: MCL-1 (Homo sapiens)
# Sequence (Q07820 whole entry): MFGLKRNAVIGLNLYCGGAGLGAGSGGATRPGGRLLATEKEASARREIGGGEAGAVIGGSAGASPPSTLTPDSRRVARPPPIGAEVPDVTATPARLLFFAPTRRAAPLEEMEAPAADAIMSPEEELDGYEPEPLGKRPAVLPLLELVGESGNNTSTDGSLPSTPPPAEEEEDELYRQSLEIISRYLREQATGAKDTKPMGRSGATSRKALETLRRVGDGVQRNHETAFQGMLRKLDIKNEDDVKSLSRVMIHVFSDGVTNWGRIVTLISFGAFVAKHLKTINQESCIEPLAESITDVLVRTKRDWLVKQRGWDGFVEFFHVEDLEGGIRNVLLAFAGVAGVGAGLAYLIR
# assay_summary: Protein-protein interaction assay MCL-1/Noxa BH3 peptide (MCL-1 assay), TR-FRET
# Type: binding
# experimental_context: MBP-MCL-1 / Noxa BH3-derived peptide, median
Each entry below lists one item and its recorded IC50 value.

compound	study_system	IC50 [nM]
CC(C)c1c2c(nn1C)CN(C)CCCn1c(C(=O)O)c(CCCOc3cccc4ccccc34)c3cccc-2c31 (racemic) [Example 113]	MCL-1 (Homo sapiens)	19.7
Cc1ccc2c(CCCOc3cccc4c3CCCC4)c(C(=O)O)n3c2c1-c1c(C)nn(C)c1COCCCC3 (racemic)	MCL-1 (Homo sapiens)	5.01
Cc1nn(C)c2c1-c1cccc3c(CCCOc4ccc(F)c5ccccc45)c(C(=O)O)n(c13)CCCCOC2 (racemic) [Example 021]	MCL-1 (Homo sapiens)	11
Cc1nn(C)c2c1-c1cccc3c(CCCOc4cccc5ccccc45)c(C(=O)O)n(c13)CCCCN2Cc1ccccc1	MCL-1 (Homo sapiens)	353
CN(C)S(=O)(=O)N1CCN(c2ccc(OCc3nn(C)c4c3-c3cccc5c(CCCOc6cccc7ccccc67)c(C(=O)O)n(c35)CC=CCOC4)cc2)CC1 (racemic)	MCL-1 (Homo sapiens)	12.7
CCc1nn(C)c2c1-c1cccc3c(CCCOc4cccc5c(F)cccc45)c(C(=O)O)n(c13)CCCCOC2 (single isomer, unassigned) [Example 300]	MCL-1 (Homo sapiens)	1.27

====

# System: SUDHL5
# assay_summary: Anti-proliferative effect (CellTiter-Glo, 72 h), SUDHL5
# Assay type: cell-based
# experimental_context: Homo sapiens, SU-DHL-5, 72 h, SUDHL5 cells, antiproliferation, 72 h incubation, median, read-out: Antiproli SUDHL5 [M] (median)
Below, each entry is listed with its recorded IC50.
endpoint_name: IC50 (M)

molecule	observed_result
Cc1cc2c(OCCCc3c(C(=O)O)n4c5c(cccc35)-c3c(C)nn(C)c3COCCCC4)cccc2cc1F (single isomer, unassigned; enantiomer 1) [Example 050]	1.41e-05
CCc1nn(C)c2c1-c1c(C)ccc3c(C(C)CCOc4cccc5ccccc45)c(C(=O)O)n(c13)CCCCOC2 (single isomer, unassigned) [Example 272]	2.76e-06
Cc1nn(C)c2c1-c1cccc3c(CCCOc4cccc5ccccc45)c(C(=O)O)n(c13)CCCOC2 (racemic) [Example 043]	1.05e-05
Cc1cc2c(OCCCc3c(C(=O)O)n4c5c(cccc35)-c3c(C)nn(C)c3COCCCC4)cccc2cc1F (racemic) [Example 049]	1.1e-05
CCN(CC)S(=O)(=O)N1CCN(c2ccc(OCc3nn(C)c4c3-c3cccc5c(CCCOc6cccc7ccccc67)c(C(=O)O)n(c35)CCCCOC4)cc2)CC1 (racemic)	1.27e-06
Cn1nc(COC2CC2)c2c1COCCCCn1c(C(=O)O)c(CCCOc3cccc4ccccc34)c3cccc-2c31 (single isomer, unassigned) [Example 214]	9.08e-06
Cc1nn(C)c2c1-c1cccc3c(CCCOc4cccc5cc(F)ccc45)c(C(=O)O)n(c13)CCCCOC2 (racemic)	2.32e-06
Cc1ccc2c(CCCOc3cccc4ccccc34)c(C(=O)O)n3c2c1-c1c(nn(C)c1C)CN(C)CCC3 (racemic)	1.11e-06
CCc1c2c(nn1CCN1CCOCC1)COCCCCn1c(C(=O)O)c(CCCOc3cccc4ccccc34)c3ccc(C)c-2c31 (racemic)	4.17e-06

====

As shown below, each of these compounds has a reported log10 IC50 value.
# Tested on: SUDHL5
# assay_summary: Anti-proliferative effect (CellTiter-Glo, 72 h), SUDHL5
# Type: cell-based
# experimental_context: Homo sapiens, SU-DHL-5, 72 h, SUDHL5 cells, antiproliferation, 72 h incubation, median, read-out: Antiproli SUDHL5 [M] (median)
Structures can show the parent of a compound that is named as a salt.
endpoint_name: log10 IC50 (log10 of the value in M)

compound	log10 IC50
Cc1cc(OCCCc2c(C(=O)O)n3c4c(cccc24)-c2c(COc4ccccc4)nn(C)c2CN(C)CCC3)cc(C)c1Cl (racemic) [Example 1-84]	-4.93
Cn1nc(COc2ccc(N3CCN(C(=O)OC(C)(C)C)CC3)cc2)c2c1COCCCCn1c(C(=O)O)c(CCCOc3cccc4ccccc34)c3cccc-2c31 (racemic) [Example 1-6]	-5.86
Cc1c2c(nn1CCN(C)C)COCCCCn1c(C(=O)O)c(CCCOc3cccc4ccccc34)c3cccc-2c31 (racemic) [Example 243, Trifluoroacetic Acid Salt]	-4.95
Cn1nc(COc2ccc(N3CCN(CCC(C)(C)O)CC3)cc2)c2c1COCCCCn1c(C(=O)O)c(CCCOc3cccc4ccccc34)c3cccc-2c31 (racemic) [Example 1-121, Ammonium Salt]	-5.24
CC(C)OCc1nn(C)c2c1-c1cccc3c(CCCOc4cccc5ccccc45)c(C(=O)O)n(c13)CCCCN(C)C2 (single isomer, unassigned) [Example 1-74]	-5.02
CCc1c2c(nn1C)CN(C)CCCn1c(C(=O)O)c(CCCOc3cccc4ccccc34)c3cccc-2c31 (single isomer, unassigned; enantiomer 1) [Example 142]	-5.08
Cc1nn(CC(F)(F)F)c2c1-c1cccc3c(CCCOc4cccc5ccccc45)c(C(=O)O)n(c13)C/C=C\COC2 (racemic) [Example 098]	-4.56
